# SUBJECT OF TEST: Tyrosine-protein phosphatase non-receptor type 1 (Homo sapiens, UniProt P18031)
# Sequence (P18031 whole entry): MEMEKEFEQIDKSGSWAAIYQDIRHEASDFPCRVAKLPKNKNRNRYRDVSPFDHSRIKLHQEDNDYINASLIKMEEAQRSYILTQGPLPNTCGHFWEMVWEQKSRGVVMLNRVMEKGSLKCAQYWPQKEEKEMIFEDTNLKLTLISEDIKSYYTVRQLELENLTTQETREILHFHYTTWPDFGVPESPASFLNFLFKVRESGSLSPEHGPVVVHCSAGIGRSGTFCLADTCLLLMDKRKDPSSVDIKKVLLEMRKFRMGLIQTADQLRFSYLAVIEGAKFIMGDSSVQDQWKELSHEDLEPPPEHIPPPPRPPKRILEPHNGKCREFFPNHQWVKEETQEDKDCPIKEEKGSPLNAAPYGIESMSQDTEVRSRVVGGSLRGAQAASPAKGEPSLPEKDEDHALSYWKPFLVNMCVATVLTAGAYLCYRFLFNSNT
MEASURE NAME: IC50

item_smiles=CO[C@@]12OC(=O)C=C1[C@H](O)C[C@H]1C(C)=C[C@@H]2CC1(C)C endpoint_result="> 35 µM"
item_smiles=CC1=C[C@@H]2CC(C)(C)[C@H]1C[C@@H](O)c1ccoc12 endpoint_result="> 40 µM"

Exercise: Fill in the blank: the reported IC50 of C=C/C=C1/CO[C@]2(OC)CC[C@@H](O)[C@@H](O)[C@@H]12 is ____.
Key: > 40 µM
